meta.source: patent US20210107971A1

tgt: recombinant full-length human alpha synuclein monomer (human, UniProt P37840 1-140)
protocol: SPR, Biacore T200, as in Example 3; Fab injected;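 also: ligands amine-coupled on CM5 chip flow cells, HBS-EP+ running buffer, kinetic data fitted with 1:1 model allowing local bulk contribution and global Rmax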
endpoint label: koff (s⁻¹)
Give the value in s⁻¹ but do not write s⁻¹ after it.

Q) Would you kindly share the measured koff for 6470 rabbit Fab with heavy chain mutation N99R (Fab, V domains shown) VH: QSVEESGGRLVTPGTPLTLTCTVSGIDLSSHDMYWVRQAPGKGLEYIGAIYASGSTYYASWAKGRFTISKTSTTVDLKMTSLTTEDTATYFCARIHYGRSGGLWGQGTLVTVSS VL: AIVMTQTPSSKSVAVGDTVTINCQASQSVYKNNYLAWFQQKPGQPPKQLIYGASTLASGVPSRFKGSGSGTQFTLTISDVVCDDAATYYCAGYKGGRNDGFAFGGGTEVVVKR ?
A) 0.17

Q) Would you kindly share the measured koff for 6470 rabbit Fab with heavy chain mutation S53N (Fab, V domains shown) VH: QSVEESGGRLVTPGTPLTLTCTVSGIDLSSHDMYWVRQAPGKGLEYIGAIYANGSTYYASWAKGRFTISKTSTTVDLKMTSLTTEDTATYFCARIHYGNSGGLWGQGTLVTVSS VL: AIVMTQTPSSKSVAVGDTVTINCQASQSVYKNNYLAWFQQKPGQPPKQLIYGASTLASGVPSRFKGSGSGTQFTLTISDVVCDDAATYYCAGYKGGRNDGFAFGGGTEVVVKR ?
A) 0.0517
